Values were extracted from ChEMBL document CHEMBL4190374.

Target: Gamma-aminobutyric acid receptor subunit alpha-4/beta-3 (Rattus norvegicus, UniProt P28471+P63079)
Sequence (P28471 whole entry, one chain of several): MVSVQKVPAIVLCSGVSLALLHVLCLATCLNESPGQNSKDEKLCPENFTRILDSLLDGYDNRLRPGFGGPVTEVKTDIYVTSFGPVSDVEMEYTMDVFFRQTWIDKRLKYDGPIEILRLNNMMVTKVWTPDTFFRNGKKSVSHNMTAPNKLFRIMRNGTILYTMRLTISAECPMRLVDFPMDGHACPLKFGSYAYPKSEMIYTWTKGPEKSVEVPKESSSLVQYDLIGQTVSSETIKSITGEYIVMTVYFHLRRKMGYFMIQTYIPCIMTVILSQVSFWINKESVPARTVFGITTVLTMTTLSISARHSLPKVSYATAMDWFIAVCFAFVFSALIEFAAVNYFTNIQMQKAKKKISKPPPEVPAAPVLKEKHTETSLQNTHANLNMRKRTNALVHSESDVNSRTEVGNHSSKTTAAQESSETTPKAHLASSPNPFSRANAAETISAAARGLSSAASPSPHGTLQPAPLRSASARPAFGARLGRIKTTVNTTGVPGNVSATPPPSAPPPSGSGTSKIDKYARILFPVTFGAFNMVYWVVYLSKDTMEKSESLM
Assay: Modulation of rat […] GABA-A receptor alpha4beta3 expressed in HEK293 cells in presence of GABA by patch-clamp assay
resultType: pEC50
// pEC50: -log10(molar conc.)

State its pEC50 for this compound: `O=C(Nc1c(-c2cccs2)nc2c(Br)cc(Br)cn12)c1ccc(Cl)cc1`
7.22

###

Target: Gamma-aminobutyric acid receptor subunit alpha-6/beta-3/gamma-2 (Rattus norvegicus) (UniProt P18508+P30191+P63079)
Assay: Displacement of [3H]EBOB from rat GABA-A receptor alpha6beta3gamma2 expressed in HEK293 cell membranes up to 10 uM after 90 mins by liquid scintillation counting analysis relative to control
resultType: Imax (%)
Report the value in % with no unit label.

* O=C(Nc1c(-c2cccs2)nc2c(Br)cc(Br)cn12)c1ccc(F)cc1 | 103

State its Imax for this compound: `CCCCOc1ccc(C(=O)Nc2c(-c3cccs3)nc3c(Br)cc(Br)cn23)cc1`
24

State its Imax for this compound: `O=C(Nc1c(-c2cccs2)nc2c(Br)cc(Br)cn12)c1ccc(Cl)cc1`
94

State its Imax for this compound: `CCCCOc1ccc(C(=O)Nc2c(-c3cccs3)nc3ccc(Br)cn23)cc1`
10

###

Target: Gamma-aminobutyric acid receptor subunit alpha-4/beta-3/delta (Rattus norvegicus, UniProt P18506+P28471+P63079)
Sequence (P18506 whole entry, one chain of several): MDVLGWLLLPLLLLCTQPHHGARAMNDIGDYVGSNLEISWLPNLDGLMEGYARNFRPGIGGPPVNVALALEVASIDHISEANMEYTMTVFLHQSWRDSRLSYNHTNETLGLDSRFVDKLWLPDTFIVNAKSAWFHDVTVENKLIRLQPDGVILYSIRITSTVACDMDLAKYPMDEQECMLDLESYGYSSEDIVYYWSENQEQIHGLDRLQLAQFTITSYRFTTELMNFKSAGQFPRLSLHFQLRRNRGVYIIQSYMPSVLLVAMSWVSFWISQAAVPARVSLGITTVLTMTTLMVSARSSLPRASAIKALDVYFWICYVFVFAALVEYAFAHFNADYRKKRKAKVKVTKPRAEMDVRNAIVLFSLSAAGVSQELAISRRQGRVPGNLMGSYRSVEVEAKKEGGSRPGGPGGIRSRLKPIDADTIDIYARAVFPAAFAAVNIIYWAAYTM
Sequence (P28471 whole entry, one chain of several): as the sequence (P28471 whole entry, one chain of several) above
Experiment: Modulation of rat […] GABA-A receptor alpha4beta3delta expressed in HEK293 cells in presence of GABA by patch-clamp assay
Reported EC50 values for a set of compounds
Report the value in nM with no unit label.

- O=C(Nc1c(-c2cccs2)nc2ccccn12)c1ccc(Cl)cc1: 970

State its EC50 for this compound: `O=C(Nc1c(-c2cccs2)nc2c(Br)cc(Br)cn12)c1ccc(Cl)cc1`
150

###

Molecular target: Gamma-aminobutyric acid receptor subunit alpha-6/beta-3/delta (Rattus norvegicus, UniProt P18506+P30191+P63079)
Sequence (P18506 whole entry, one chain of several): as the sequence (P18506 whole entry, one chain of several) above
Experiment: Displacement of [3H]EBOB from rat GABA-A receptor alpha6beta3delta expressed in HEK293 cell membranes after 90 mins by liquid scintillation counting analysis
pIC50: −log10 of the molar value.
I would appreciate it if you labelled entries T when pIC50 is 6 or higher, otherwise F.

Here are 2 compounds together with their reported answers.
• CCCCOc1ccc(C(=O)Nc2c(-c3cccs3)nc3ccc(Br)cn23)cc1 = F
• O=C(Nc1c(-c2cccs2)nc2ccc(Br)cn12)C1CCCCC1 = F

Test whether the compound `O=C(Nc1c(-c2cccs2)nc2c(Br)cc(Br)cn12)c1ccc(Cl)cc1` records pIC50 of 6 or higher.
T

###

Molecular target: Gamma-aminobutyric acid receptor subunit alpha-6/beta-3/gamma-2 (Rattus norvegicus, UniProt P18508+P30191+P63079)
Sequence (P18508 whole entry): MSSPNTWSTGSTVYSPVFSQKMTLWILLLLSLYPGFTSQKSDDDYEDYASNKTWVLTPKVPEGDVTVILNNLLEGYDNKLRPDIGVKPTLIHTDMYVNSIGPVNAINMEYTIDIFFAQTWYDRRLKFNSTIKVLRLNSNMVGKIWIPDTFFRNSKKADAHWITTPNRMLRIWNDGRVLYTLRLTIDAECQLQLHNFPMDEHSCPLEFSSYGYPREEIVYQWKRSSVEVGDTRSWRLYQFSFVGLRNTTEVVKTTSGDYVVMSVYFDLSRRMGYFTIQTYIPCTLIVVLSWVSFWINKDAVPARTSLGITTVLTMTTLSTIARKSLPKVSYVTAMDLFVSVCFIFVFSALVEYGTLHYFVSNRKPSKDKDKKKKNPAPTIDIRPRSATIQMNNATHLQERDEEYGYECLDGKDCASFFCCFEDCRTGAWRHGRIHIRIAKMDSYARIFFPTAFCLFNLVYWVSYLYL
Sequence (P30191 whole entry): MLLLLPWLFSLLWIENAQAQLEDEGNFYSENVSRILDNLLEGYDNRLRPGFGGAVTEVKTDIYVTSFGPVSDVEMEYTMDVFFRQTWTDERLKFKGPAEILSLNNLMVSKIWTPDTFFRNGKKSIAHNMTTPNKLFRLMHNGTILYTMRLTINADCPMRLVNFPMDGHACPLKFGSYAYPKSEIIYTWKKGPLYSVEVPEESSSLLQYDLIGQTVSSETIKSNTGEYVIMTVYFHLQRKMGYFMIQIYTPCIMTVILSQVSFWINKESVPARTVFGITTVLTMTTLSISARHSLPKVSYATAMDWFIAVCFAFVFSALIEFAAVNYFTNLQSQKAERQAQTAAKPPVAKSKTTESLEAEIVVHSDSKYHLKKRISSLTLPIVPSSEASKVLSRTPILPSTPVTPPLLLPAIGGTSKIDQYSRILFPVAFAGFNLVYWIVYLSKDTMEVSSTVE
Sequence (P63079 whole entry): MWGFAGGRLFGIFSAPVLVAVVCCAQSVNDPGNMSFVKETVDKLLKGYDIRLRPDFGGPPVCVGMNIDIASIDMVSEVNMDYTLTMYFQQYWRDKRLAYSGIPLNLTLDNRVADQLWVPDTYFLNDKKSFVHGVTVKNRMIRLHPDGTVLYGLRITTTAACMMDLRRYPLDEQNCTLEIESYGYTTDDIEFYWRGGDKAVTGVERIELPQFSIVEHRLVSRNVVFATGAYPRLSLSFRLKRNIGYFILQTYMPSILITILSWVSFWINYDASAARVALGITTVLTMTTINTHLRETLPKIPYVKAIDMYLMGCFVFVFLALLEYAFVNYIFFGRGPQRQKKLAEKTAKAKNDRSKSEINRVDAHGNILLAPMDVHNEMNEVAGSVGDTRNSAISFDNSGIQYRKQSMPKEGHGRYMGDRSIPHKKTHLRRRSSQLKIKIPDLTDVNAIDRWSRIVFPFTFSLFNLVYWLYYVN
Test: Displacement of [3H]EBOB from rat GABA-A receptor alpha6beta3gamma2 expressed in HEK293 cell membranes after 90 mins in presence of GABA by liquid scintillation counting analysis
Reported pIC50 values for a set of molecules
// pIC50: -log10(molar conc.)

- CCCCOc1ccc(C(=O)Nc2c(-c3cccs3)nc3ccc(Br)cn23)cc1: 5.36

State its pIC50 for this molecule: `O=C(Nc1c(-c2cccs2)nc2c(Br)cc(Br)cn12)c1ccc(OCCCCF)cc1`
5.89

State its pIC50 for this molecule: `O=C(Nc1c(-c2cccs2)nc2c(Br)cc(Br)cn12)c1ccc(Cl)cc1`
5.96
